system: SARS-CoV-2; conditions: Calu-3 cells
Counter-ions that a name gives are not always drawn.
For each entry below, report its Anti-SARS-CoV-2 screening on Calu-3 cells: viability [% of control] value.

Lookup: Which Anti-SARS-CoV-2 screening on Calu-3 cells: viability [% of control] value is on record for CN1C2CCC1CC(OC(c1ccccc1)c1ccc(Cl)cc1)C2.Cl (stereo not drawn) ?
Found: 110.96 % of control

Lookup: Another molecule to look at: COc1cc(/C=C/C=C/C(=O)NCCN2CCC(OC(c3ccccc3)c3ccccc3)CC2)ccc1O [TMK-777]
Found: 98.98 % of control

Lookup: Another molecule to look at: CC(C)c1ccc2c(c1)C(N1CCN(CCO)CC1)Cc1ccc(F)cc1S2 (stereo not drawn) [isofloxythepin]
Found: 97.70 % of control

Lookup: Another molecule to look at: CN(C)CCCOC(CCCCc1ccccc1)c1ccccc1 (stereo not drawn) [SM-3163]
Found: 103.94 % of control

Lookup: Another molecule to look at: Oc1ccc2c(c1)CC[C@H](c1ccccc1)[C@H]2c1ccc(OCCN2CCCC2)cc1 [Lasofoxifene tartrate]
Found: 103.26 % of control

Lookup: Another molecule to look at: Cc1c(-c2ccccc2)oc2ccc(OCCCCCCN3CCC(O)CC3)cc2c1=O [NPC 16377]
Found: 101.43 % of control

Lookup: Another molecule to look at: COc1cc2c(cc1N1C[C@@H](C)N[C@@H](C)C1)N(C(=O)c1ccc(-c3ccc(-c4noc(C)n4)cc3C)cc1)CC2 [SB-616234-A]
Found: 119.80 % of control

Lookup: Another molecule to look at: c1ccc(CCCC(Oc2ccccc2OCc2ccccc2)C2=NCCN2)cc1 (stereo not drawn) [MDL 102588]
Found: 101.49 % of control

Lookup: Another molecule to look at: CC[C@H](NC(=O)[C@H](CS(=O)(=O)CC1CC1)N[C@@H](c1ccc(F)cc1)C(F)(F)F)C(=O)C(=O)NC1CC1 [VBY-825, reference compound]
Found: 100.68 % of control

Lookup: Another molecule to look at: COc1ccc2cc(S(=O)(=O)N[C@H](CC(=O)N[C@H](Cc3ccc(CN4[C@H](C)CCC[C@@H]4C)cc3)C(=O)N(C)C(C)C)c3ccc4c(c3)OCO4)ccc2c1 [SSR240612]
Found: 108.83 % of control

Lookup: Another molecule to look at: CCNCc1cncc(-c2ccc3[nH]nc(-c4nc5c(F)cc(F)cc5[nH]4)c3c2)c1C [AG-024322]
Found: 54.61 % of control

Lookup: Another molecule to look at: C#CCOc1ccc2c(c1)c(-c1ccc(C(C)C)cc1)nc(=O)n2Cc1ccc(Br)cc1 [AXT-914, reference compound]
Found: 76.99 % of control

Lookup: Another molecule to look at: COC(=O)C1=C(C)NC(C)=C(C(=O)OCCCCNC[C@H](O)COc2ccccc2)C1c1cccc([N+](=O)[O-])c1 (stereo partly drawn) [YM 430]
Found: 101.27 % of control

Lookup: Another molecule to look at: Cc1cccc(/C=N/Nc2cc(N3CCOCC3)nc(OCCc3ccccn3)n2)c1 [Target 16/Apilimod mesilate]
Found: 101.93 % of control

Lookup: Another molecule to look at: CC/C(=C(\c1ccc(O)cc1)c1ccc(OCCNC)cc1)c1ccccc1.Cl [Endoxifen (hydrochloride)]
Found: 90.44 % of control

---

For each entry below, report its Anti-SARS-CoV-2 screening on Calu-3 cells: viability [% of control] value.
system: SARS-CoV-2; conditions: Calu-3 cells
Where a name gives a salt, the structure may show the parent alone. Where a SMILES comes first, the peptide text is derived from it. The star is where a group is joined. Cbz = O=C(OCc1ccccc1)*; CHN2 = [N-]=[N+]=C*

Lookup: Which Anti-SARS-CoV-2 screening on Calu-3 cells: viability [% of control] value is on record for O=S(=O)(Nc1ccc(CCNC[C@H](O)c2cccnc2)cc1)c1ccc(-c2nc(-c3ccc(C(F)(F)F)cc3)cs2)cc1 ?
Found: 84.86 % of control

Lookup: Another compound to look at: CN1CC[C@H](c2c(O)cc(O)c3c(=O)cc(-c4ccccc4Cl)oc23)[C@H](O)C1
Found: 90.90 % of control

Lookup: Another compound to look at: Nc1ncccc1-c1nc2ccc(-c3ccccc3)nc2n1-c1ccc(C2(N)CCC2)cc1 [ARQ-092 (Miransertib mesylate)]
Found: 27.64 % of control

Lookup: Another compound to look at: CC(C)(O)c1ccc2c(c1)/C(=C/CCN1CC[C@](O)(c3ccc(Cl)cc3)C(C)(C)C1)c1cccnc1CO2
Found: 106.59 % of control

Lookup: Another compound to look at: Oc1cccc[c]1[Hg][Cl]
Found: 123.69 % of control

Lookup: Another compound to look at: CCN(CC)CCCN1c2ccccc2Sc2ccc(Cl)cc21.Cl [Chlorproethazine HCl]
Found: 91.47 % of control

Lookup: Another compound to look at: COc1cc(F)ccc1-c1cc(Nc2cc(CS(C)(=N)=O)ccn2)ncc1F (single isomer, unassigned; (+)) [(+)-BAY-1251152, reference compound]
Found: 100.11 % of control

Lookup: Another compound to look at: CC(C)CC(NC(=O)OCc1ccccc1)C(=O)NC(C(=O)NCC(=O)C=[N+]=[N-])C(C)C (stereo not drawn) [Z LVG CHN2] (Cbz-Leu-Val-Gly-CHN2; configuration not given here)
Found: 97.82 % of control

Lookup: Another compound to look at: CN(C)CCCN1c2ccccc2Sc2ccc(Cl)cc21
Found: 118.10 % of control

Lookup: Another compound to look at: Cc1cc(-c2nc3cc(F)ccc3s2)ccc1NC(=O)[C@@H](N)CCCCN [Phortress, reference compound]
Found: 106.32 % of control

Lookup: Another compound to look at: CN(C)CCC(Sc1cccc2ccccc12)c1cccs1 (stereo not shown)
Found: 105.83 % of control

Lookup: Another compound to look at: Cc1ccc(Sc2ccccc2C2CCNCC2)cc1
Found: 106.74 % of control

Lookup: Another compound to look at: Oc1ccc(CCN2CCC(Nc3nc4ccccc4n3Cc3ccc(F)cc3)CC2)cc1
Found: 121.52 % of control

Lookup: Another compound to look at: COc1cc(C(C)=O)ccc1OCCCN1CCC(C(O)(c2ccc(F)cc2)c2ccc(F)cc2)CC1
Found: 103.33 % of control

Lookup: Another compound to look at: CN(C)C(C)(C)CSc1nc2ccccc2cc1-c1ccccc1
Found: 98.23 % of control

Lookup: Another compound to look at: CC(C)c1ccc(C(=O)c2cccs2)c(SCCCCCCCCN(C)C)n1
Found: 88.61 % of control

---

tested on: SARS-CoV-2; conditions: Calu-3 cells, viral genome copies in supernatant 48 hours post-infection, n = 3
reportedEndpoint: pIC50
A value of pIC50 is the negative decimal logarithm of a concentration given in moles per litre.

Lookup: Find pIC50 (SARS-CoV-2) for the entry Cc1cc(-c2nc3cc(F)ccc3s2)ccc1NC(=O)[C@@H](N)CCCCN [Phortress, reference compound]
Found: 4.88

---

test: in vitro
Counter-ions that a name gives are not always drawn.
reportedEndpoint: viability at 48 h, 5 µM (%)
Field format: number, assumed %, no unit text.

Lookup: Which viability at 48 h, 5 µM value is on record for CCc1cnn2c(NCc3ccc[n+]([O-])c3)cc(N3CCCC[C@H]3CCO)nc12 [Dinaciclib, reference compound] ?
Found: 29.7

Lookup: Another compound to look at: CCN(CC)CCN(Cc1ccc(-c2ccc(C(F)(F)F)cc2)cc1)C(=O)Cn1c(SCc2ccc(F)cc2)nc(=O)c2c1CCC2
Found: 103

Lookup: Another compound to look at: CN1CCN(CC/C=C2/c3ccccc3Sc3ccc(S(=O)(=O)N(C)C)cc32)CC1
Found: 114

Lookup: Another compound to look at: O=C1NCCN1CCN1CCC(c2cn(-c3ccc(F)cc3)c3ccc(Cl)cc23)CC1
Found: 106

Lookup: Another compound to look at: CN1CCC(c2cn(C)c3ccc(OS(=O)(=O)c4c(F)cccc4F)cc23)CC1
Found: 111

Lookup: Another compound to look at: CN1C[C@H](CNC(=O)OCc2ccccc2)C[C@@H]2c3cccc4c3c(cn4C)C[C@H]21
Found: 117

Lookup: Another compound to look at: C1CCC(C(CC2CCCCN2)C2CCCCC2)CC1 (stereo not shown)
Found: 97

Lookup: Another compound to look at: CN[C@H]1CC[C@@H](c2ccc(Cl)c(Cl)c2)c2ccccc21 [sertraline hydrochloride]
Found: 101

Lookup: Another compound to look at: COc1cc(Nc2ncc(F)c(Nc3ccc4c(n3)N(COP(=O)(O)O)C(=O)C(C)(C)O4)n2)cc(OC)c1OC
Found: 86.2

Lookup: Another compound to look at: CCN(CC)CCOc1ccc(/C(=C(/Cl)c2ccccc2)c2ccccc2)cc1 [enclomiphene citrate]
Found: 102

Lookup: Another compound to look at: CC(CN(C)C)CN1c2ccccc2CCc2ccccc21 (stereo not shown)
Found: 114

Lookup: Another compound to look at: COc1ccc(C(C)C)cc1CN[C@@H]1C2CCN(CC2)[C@H]1C(c1ccccc1)c1ccccc1
Found: 83.9

Lookup: Another compound to look at: CC/C(=C(\c1ccccc1)c1ccc(OCCN(C)C)cc1)c1ccccc1 [Tamoxifen citrate]
Found: 102

Lookup: Another compound to look at: CC(=O)[C@]1(O)Cc2c(O)c3c(c(O)c2[C@@H](O[C@H]2C[C@H](N)[C@H](O)[C@H](C)O2)C1)C(=O)c1ccccc1C3=O
Found: 15

Lookup: Another compound to look at: OCCN1CCN(CCC=C2c3ccccc3Sc3ccc(C(F)(F)F)cc32)CC1
Found: 105

Lookup: Another compound to look at: CN(C)CCCN1c2ccccc2Sc2ccc(C(F)(F)F)cc21
Found: 72.7
